Answer each item with its documented MIC.
- System: Cutibacterium acnes
- EXPERIMENTAL PROTOCOL: In vitro antimicrobial activity against anaerobic bacteria propionibacterium acnes 79
- Assay type: functional

// MIC lookup, key: CC[C@H]1OC(=O)[C@H](C)[C@@H](O[C@H]2C[C@@](C)(OC)[C@@H](O)[C@H](C)O2)[C@H](C)[C@@H](O[C@@H]2O[C@H](C)C[C@H](N(C)C)[C@H]2O)[C@](C)(O)C[C@@H](C)C(=O)[C@H](C)[C@@H](O)[C@]1(C)O
< 0.5 µg/mL

Query CC[C@H]1OC(=O)C[C@@H](O)[C@H](C)[C@@H](O[C@@H]2O[C@H](C)[C@@H](O)[C@H](N(C)C)[C@H]2O)[C@@H](CCOc2ccc(C(=O)c3ccccc3)cc2)C[C@@H](C)C(=O)/C=C/C(C)=C/[C@@H]1CO[C@@H]1O[C@H](C)[C@@H](O)[C@@H](OC)[C@H]1OC next
< 0.5 µg/mL

Query CC[C@H]1OC(=O)C[C@@H](O)[C@H](C)[C@@H](O[C@@H]2O[C@H](C)[C@@H](O[C@H]3C[C@@](C)(O)[C@@H](O)[C@H](C)O3)[C@H](N(C)C)[C@H]2O)[C@@H](CCCl)C[C@@H](C)C(=O)/C=C/C(C)=C/[C@@H]1CO[C@@H]1O[C@H](C)[C@@H](O)[C@@H](OC)[C@H]1OC next
> 128 µg/mL

Query CC[C@H]1OC(=O)C[C@@H](O)[C@H](C)[C@@H](O[C@@H]2O[C@H](C)[C@@H](O)[C@H](N(C)C)[C@H]2O)[C@@H](CCOc2ccc(-c3ccccc3)cc2)C[C@@H](C)C(=O)/C=C/C(C)=C/[C@@H]1CO[C@@H]1O[C@H](C)[C@@H](O)[C@@H](OC)[C@H]1OC next
< 0.5 µg/mL

---

- Test system: Prevotella melaninogenica
- EXPERIMENTAL PROTOCOL: In vitro antimicrobial activity against anaerobic bacteria bacteroides melaninogenicus 2736
- Format: functional
METRIC NAME: MIC (µg/mL)
State the answer as a number, implicitly in µg/mL.

// MIC lookup, key: CC[C@H]1OC(=O)C[C@@H](O)[C@H](C)[C@@H](O[C@@H]2O[C@H](C)[C@@H](O[C@H]3C[C@@](C)(O)[C@@H](O)[C@H](C)O3)[C@H](N(C)C)[C@H]2O)[C@@H](CCCl)C[C@@H](C)C(=O)/C=C/C(C)=C/[C@@H]1CO[C@@H]1O[C@H](C)[C@@H](O)[C@@H](OC)[C@H]1OC
2

Query CC[C@H]1OC(=O)C[C@@H](O)[C@H](C)[C@@H](O[C@@H]2O[C@H](C)[C@@H](O)[C@H](N(C)C)[C@H]2O)[C@@H](CCN=[N+]=[N-])C[C@@H](C)C(=O)/C=C/C(C)=C/[C@@H]1CO[C@@H]1O[C@H](C)[C@@H](O)[C@@H](OC)[C@H]1OC next
2

Query CC[C@H]1OC(=O)C[C@@H](O)[C@H](C)[C@@H](O[C@@H]2O[C@H](C)[C@@H](O[C@H]3C[C@@](C)(O)[C@@H](O)[C@H](C)O3)[C@H](N(C)C)[C@H]2O)[C@@H](CC=O)C[C@@H](C)C(=O)/C=C/C(C)=C/[C@@H]1CO next
2

Query CC[C@H]1OC(=O)C[C@@H](O)[C@H](C)[C@@H](O[C@@H]2O[C@H](C)[C@@H](O)[C@H](N(C)C)[C@H]2O)[C@@H](CCCl)C[C@@H](C)C(=O)/C=C/C(C)=C/[C@@H]1CO[C@@H]1O[C@H](C)[C@@H](O)[C@@H](OC)[C@H]1OC next
2

Query CC[C@H]1OC(=O)C[C@@H](O)[C@H](C)[C@@H](O[C@@H]2O[C@H](C)[C@@H](O[C@H]3C[C@@](C)(O)[C@@H](O)[C@H](C)O3)[C@H](N(C)C)[C@H]2O)[C@@H](CCO)C[C@@H](C)C(=O)/C=C/C(C)=C/[C@@H]1CO[C@@H]1O[C@H](C)[C@@H](O)[C@@H](OC)[C@H]1OC next
8

Query CC[C@H]1OC(=O)C[C@@H](O)[C@H](C)[C@@H](O[C@@H]2O[C@H](C)[C@@H](O)[C@H](N(C)C)[C@H]2O)[C@@H](CCOc2ccccc2)C[C@@H](C)C(=O)/C=C/C(C)=C/[C@@H]1CO[C@@H]1O[C@H](C)[C@@H](O)[C@@H](OC)[C@H]1OC next
1

Query CC[C@H]1OC(=O)C[C@@H](O)[C@H](C)[C@@H](O[C@@H]2O[C@H](C)[C@@H](O)[C@H](N(C)C)[C@H]2O)[C@@H](CCOc2ccc(C(=O)c3ccccc3)cc2)C[C@@H](C)C(=O)/C=C/C(C)=C/[C@@H]1CO[C@@H]1O[C@H](C)[C@@H](O)[C@@H](OC)[C@H]1OC next
2

Query CC[C@H]1OC(=O)C[C@@H](O)[C@H](C)[C@@H](O[C@@H]2O[C@H](C)[C@@H](O)[C@H](N(C)C)[C@H]2O)[C@@H](CC=O)C[C@@H](C)C(=O)/C=C/C(C)=C/[C@@H]1CO[C@@H]1O[C@H](C)[C@@H](O)[C@@H](OC)[C@H]1OC next
16

---

- Test system: Staphylococcus aureus
- EXPERIMENTAL PROTOCOL: In vitro antimicrobial activity against Staphylococcus aureus X1
- Format: functional
METRIC NAME: log10 MIC (log10 of the value in µg/mL)
A value of 2 here means MIC of 100 in µg/mL, since values are log10.

// log10 MIC lookup, key: CC[C@H]1OC(=O)C[C@@H](O)[C@H](C)[C@@H](O[C@@H]2O[C@H](C)[C@@H](O)[C@H](N(C)C)[C@H]2O)[C@@H](CCOc2ccccc2)C[C@@H](C)C(=O)/C=C/C(C)=C/[C@@H]1CO[C@@H]1O[C@H](C)[C@@H](O)[C@@H](OC)[C@H]1OC
-0.60

Query CC[C@H]1OC(=O)C[C@@H](O)[C@H](C)[C@@H](O[C@@H]2O[C@H](C)[C@@H](O[C@H]3C[C@@](C)(O)[C@@H](O)[C@H](C)O3)[C@H](N(C)C)[C@H]2O)[C@@H](CC=O)C[C@@H](C)C(=O)/C=C/C(C)=C/[C@@H]1CO next
0.00

Query CC[C@H]1OC(=O)C[C@@H](O)[C@H](C)[C@@H](O[C@@H]2O[C@H](C)[C@@H](O)[C@H](N(C)C)[C@H]2O)[C@@H](CCF)C[C@@H](C)C(=O)/C=C/C(C)=C/[C@@H]1CO[C@@H]1O[C@H](C)[C@@H](O)[C@@H](OC)[C@H]1OC next
-0.60

Query CC[C@H]1OC(=O)C[C@@H](O)[C@H](C)[C@@H](O[C@@H]2O[C@H](C)[C@@H](O)[C@H](N(C)C)[C@H]2O)[C@@H](CCOc2ccc(OC)cc2)C[C@@H](C)C(=O)/C=C/C(C)=C/[C@@H]1CO[C@@H]1O[C@H](C)[C@@H](O)[C@@H](OC)[C@H]1OC next
-0.60

Query CC[C@H]1OC(=O)C[C@@H](O)[C@H](C)[C@@H](O[C@@H]2O[C@H](C)[C@@H](O)[C@H](N(C)C)[C@H]2O)[C@@H](CCOCCc2ccccc2)C[C@@H](C)C(=O)/C=C/C(C)=C/[C@@H]1CO[C@@H]1O[C@H](C)[C@@H](O)[C@@H](OC)[C@H]1OC next
-0.60

Query CC[C@H]1OC(=O)C[C@@H](O)[C@H](C)[C@@H](O[C@@H]2O[C@H](C)[C@@H](O[C@H]3C[C@@](C)(O)[C@@H](O)[C@H](C)O3)[C@H](N(C)C)[C@H]2O)[C@@H](CCOC(C(F)(F)F)C(F)(F)F)C[C@@H](C)C(=O)/C=C/C(C)=C/[C@@H]1CO[C@@H]1O[C@H](C)[C@@H](O)[C@@H](OC)[C@H]1OC next
0.60

Query CC[C@H]1OC(=O)C[C@@H](O)[C@H](C)[C@@H](O[C@@H]2O[C@H](C)[C@@H](O[C@H]3C[C@@](C)(O)[C@@H](O)[C@H](C)O3)[C@H](N(C)C)[C@H]2O)[C@@H](CCOc2cc(Cl)cc(Cl)c2)C[C@@H](C)C(=O)/C=C/C(C)=C/[C@@H]1CO[C@@H]1O[C@H](C)[C@@H](O)[C@@H](OC)[C@H]1OC next
0.00

Query CC[C@H]1OC(=O)C[C@@H](O)[C@H](C)[C@@H](O[C@@H]2O[C@H](C)[C@@H](O)[C@H](N(C)C)[C@H]2O)[C@@H](CCOc2ccc(-c3ccccc3)cc2)C[C@@H](C)C(=O)/C=C/C(C)=C/[C@@H]1CO[C@@H]1O[C@H](C)[C@@H](O)[C@@H](OC)[C@H]1OC next
-0.30

Query CC[C@H]1OC(=O)C[C@@H](O)[C@H](C)[C@@H](O[C@@H]2O[C@H](C)[C@@H](O[C@H]3C[C@@](C)(O)[C@@H](O)[C@H](C)O3)[C@H](N(C)C)[C@H]2O)[C@@H](CCN2C(=O)c3ccccc3C2=O)C[C@@H](C)C(=O)/C=C/C(C)=C/[C@@H]1C next
1.81
